# Test system: Escherichia coli TOP10
# Assay: shrunken log2 fold change of peptide-encoding DNA abundance (4.5 h post-induction vs induction); higher = less antimicrobial activity (less host growth inhibition)
# Cond: time post-induction: 4.5 h; library: site-saturation at positions 5, 18, 19, 20
Readout name: shrunken log2 fold change

RRIRERPPRLPRPRPRPNWFPRP | -0.0607
RRIRGRPPRLPRPRPRPEWNPRP | 1.71
RRIRCRPPRLPRPRPRPDRWPRP | 0.0613
RRIRWRPPRLPRPRPRPKWMPRP | 0.242
RRIRQRPPRLPRPRPRPDMAPRP | 0.0464
RRIRKRPPRLPRPRPRPLALPRP | 0.536
RRIRLRPPRLPRPRPRPIFYPRP | -0.223
RRIRKRPPRLPRPRPRPCCQPRP | -0.102
RRIRLRPPRLPRPRPRPFESPRP | -0.168
RRIRYRPPRLPRPRPRPQHCPRP | -0.0601
RRIRQRPPRLPRPRPRPTVYPRP | 0.079
RRIRCRPPRLPRPRPRPYSAPRP | -0.752
RRIRWRPPRLPRPRPRPRGDPRP | 1.03
RRIRPRPPRLPRPRPRPFWLPRP | 0.115
RRIRARPPRLPRPRPRPHAHPRP | 0.254
RRIRARPPRLPRPRPRPAITPRP | 0.322
RRIRYRPPRLPRPRPRPCYQPRP | -0.285
RRIRIRPPRLPRPRPRPRVTPRP | -0.0426
RRIRDRPPRLPRPRPRPDPLPRP | 0.64
RRIRMRPPRLPRPRPRPVQFPRP | 0.276
RRIRGRPPRLPRPRPRPICFPRP | 0.535
RRIRTRPPRLPRPRPRPAAKPRP | 0.217
RRIRMRPPRLPRPRPRPNPNPRP | 0.394
RRIRQRPPRLPRPRPRPFLSPRP | 0.024
RRIRRRPPRLPRPRPRPSHPPRP | 0.167
RRIRKRPPRLPRPRPRPRWNPRP | 0.323

----------
# System: Escherichia coli TOP10;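 note: peptides expressed intracellularly from a pBAD plasmid library in pooled LB shake-flask culture, induced with 0.3% L-arabinose, DNA abundance read by NGS, three biological replicates, DESeq2 with apeglm shrinkage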
# Assay: shrunken log2 fold change of peptide-encoding DNA abundance (4.5 h post-induction vs induction); higher = less antimicrobial activity (less host growth inhibition)
# Cond: time post-induction: 4.5 h; library: site-saturation at positions 5, 18, 19, 20
Known shrunken log2 fold change of a selection of sequences
Readout name: shrunken log2 fold change

RRIRDRPPRLPRPRPRPDAFPRP | 0.297
RRIRSRPPRLPRPRPRPRVPPRP | 0.692
RRIRSRPPRLPRPRPRPNCAPRP | -0.172
RRIRDRPPRLPRPRPRPFWAPRP | 0.141
RRIRPRPPRLPRPRPRPKVSPRP | 0.0436
RRIRWRPPRLPRPRPRPPEKPRP | 0.269
RRIRERPPRLPRPRPRPPFTPRP | 1.17
RRIRSRPPRLPRPRPRPGLKPRP | 0.14
RRIRMRPPRLPRPRPRPAFIPRP | -0.398
RRIRPRPPRLPRPRPRPQVQPRP | -0.148
RRIRKRPPRLPRPRPRPMMVPRP | 0.0826
RRIRQRPPRLPRPRPRPCSCPRP | 0.0297
RRIRIRPPRLPRPRPRPKPGPRP | 0.53
RRIRKRPPRLPRPRPRPGNVPRP | 0.00843
RRIRSRPPRLPRPRPRPQSQPRP | -0.258
RRIRMRPPRLPRPRPRPLFRPRP | 1.44
RRIRDRPPRLPRPRPRPGMCPRP | 0.432
RRIRLRPPRLPRPRPRPPKSPRP | 0.275
RRIRSRPPRLPRPRPRPYPEPRP | -0.355
RRIRQRPPRLPRPRPRPSQEPRP | 0.0169
RRIRRRPPRLPRPRPRPMLYPRP | -0.0417
RRIRYRPPRLPRPRPRPQEPPRP | -0.273
RRIRVRPPRLPRPRPRPYMMPRP | -0.00989
